# experiment_notes: Oral bioavailability in human
# run_conditions: in vivo
Item-by-item account of bioavailability
Provide only the numeric value, understood in %.

Consider the following illustrative entries.
- compound: "CCC(C(N)=O)(C(N)=O)c1ccccc1 [PHENYLETHYLMALONAMIDE]"
  unit_of_measure: "%"
  measured_result: 91
- compound: "Cc1nc2n(c(=O)c1CCN1CCC(c3noc4cc(F)ccc34)CC1)CCCC2 [RISPERIDONE]"
  unit_of_measure: "%"
  measured_result: 70
- compound: "CC(C)N(CC[C@@](C(N)=O)(c1ccccc1)c1ccccn1)C(C)C [DISOPIRAMIDE]"
  unit_of_measure: "%"
  measured_result: 83
- compound: "C[C@@H](N)Cc1cccc(C(F)(F)F)c1"
  unit_of_measure: "%"
  measured_result: 85
- compound: "C[C@H](N)Cc1cccc(C(F)(F)F)c1 [NORDEXFENFLURAMINE]"
  unit_of_measure: "%"
  measured_result: 85

Reported bioavailability of CN(C)CCC[C@]1(c2ccc(F)cc2)OCc2cc(C#N)ccc21 [(R)-CITALOPRAM] : 80

Reported bioavailability of COc1c(N2C[C@@H]3CCCN[C@@H]3C2)c(F)cc2c(=O)c(C(=O)O)cn(C3CC3)c12 [MOXIFLOXACIN] : 90

Reported bioavailability of Oc1ccc2c3c1O[C@H]1[C@@H](O)CC[C@@]4(O)[C@@H](C2)N(CC2CCC2)CC[C@]314 [NALBUPHINE] : 11

Reported bioavailability of CCN[C@@H](C)Cc1cccc(C(F)(F)F)c1 [DEXFENFLURAMINE] : 89

###

# experiment_notes: Oral bioavailability in human
# run_conditions: in vivo, F
Item-by-item account of bioavailability
Provide only the numeric value, understood in %.

Consider the following illustrative entries.
- molecule: "Nc1ccn([C@@H]2CS[C@H](CO)O2)c(=O)n1"
  unit_of_measure: "%"
  measured_result: 86
- molecule: "CN(Cc1cnc2nc(N)nc(N)c2n1)c1ccc(C(=O)N[C@@H](CCC(=O)O)C(=O)O)cc1 [METHOTREXATE]"
  unit_of_measure: "%"
  measured_result: 70
- molecule: "Cc1cc2c(OC[C@H](O)CNC(C)C)cccc2[nH]1 [(R)-MEPINDOLOL]"
  unit_of_measure: "%"
  measured_result: 82
- molecule: "CCOC(=O)C1=C(C)NC(C)=C(C(=O)OC)[C@@H]1c1cccc(Cl)c1Cl [(S)-FELODIPINE]"
  unit_of_measure: "%"
  measured_result: 15

Reported bioavailability of `CNS(=O)(=O)CCc1ccc2[nH]cc(C3CCN(C)CC3)c2c1` : 67.5

Reported bioavailability of CCCCNC(=O)NS(=O)(=O)c1ccc(C)cc1 [TOLBUTAMIDE] : 85

Reported bioavailability of C[C@@H](O)Cn1cnc2c1c(=O)n(C)c(=O)n2C [(R)-PROXYPHYLLINE] : 100

Reported bioavailability of `COc1c(C)c2c(c(O)c1C/C=C(\C)CCC(=O)O)C(=O)OC2` : 72

Reported bioavailability of CCOC(=O)C1=C(C)NC(C)=C(C(=O)OC)[C@H]1c1cccc([N+](=O)[O-])c1 [(R)-NITRENDIPINE] : 16

###

# experiment_notes: Oral bioavailability in human
# run_conditions: in vivo
measured_property: bioavailability (%)
Provide only the numeric value, understood in %.

- compound: "CC(C)C[C@H]1C(=O)N2CCC[C@H]2[C@]2(O)O[C@@](C)(NC(=O)[C@@H]3CC4c5cccc6[nH]cc(c56)C[C@H]4N(C)C3)C(=O)N12 (some centres undefined) [DIHYDROERGOSINE]"
  measured_result: 10
- compound: "Cc1c(OCC(F)(F)F)ccnc1C[S+]([O-])c1nc2ccccc2[nH]1 (centres undefined)"
  measured_result: 80
- compound: "O=C(O)CCCc1ccc(N(CCCl)CCCl)cc1"
  measured_result: 87

Please find the next compound below.
Reported bioavailability of CC(C)N(CC[C@](C(N)=O)(c1ccccc1)c1ccccn1)C(C)C [(S)-DISOPYRAMIDE] : 83

###

# experiment_notes: Oral bioavailability in human
# run_conditions: in vivo
measured_property: bioavailability (%)
Provide only the numeric value, understood in %.

Consider the following illustrative entries.
- molecule: "c1ccc(C2(N3CCCCC3)CCCCC2)cc1"
  unit_of_measure: "%"
  bioavailability: 72
- molecule: "CN1CCN(C(=O)O[C@H]2c3nccnc3C(=O)N2c2ccc(Cl)cn2)CC1"
  unit_of_measure: "%"
  bioavailability: 80
- molecule: "C[C@]12C=CC(=O)N[C@@H]1CC[C@@H]1[C@@H]2CC[C@]2(C)[C@@H](C(=O)Nc3cc(C(F)(F)F)ccc3C(F)(F)F)CC[C@@H]12 [DUTASTERIDE]"
  unit_of_measure: "%"
  bioavailability: 60

Reported bioavailability of `O=C(O[C@H]1C[C@H]2CC[C@@H](C1)[N+]21CCCC1)C(O)(c1ccccc1)c1ccccc1` : 9.6

Reported bioavailability of `Cc1nnc2n1-c1ccc(Cl)cc1C(c1ccccc1Cl)=NC2` : 44

Reported bioavailability of COc1c(N2CCN[C@H](C)C2)c(F)cc2c(=O)c(C(=O)O)cn(C3CC3)c12 [(R)-GATIFLOXACIN] : 96

Reported bioavailability of `N[C@@H](Cc1ccc(N(CCCl)CCCl)cc1)C(=O)O` : 71

Reported bioavailability of `CN1CCN(C2=Nc3cc(Cl)ccc3Nc3ccccc32)CC1` : 55

Reported bioavailability of `Cc1ccc(-c2nc3ccc(C)cn3c2CC(=O)N(C)C)cc1` : 72

###

Item-by-item account of bioavailability
# experiment_notes: Oral bioavailability in human
# run_conditions: in vivo, F
Provide only the numeric value, understood in %.

Consider the following illustrative entries.
- molecule: "C[C@@H](OC1OCCN(Cc2n[nH]c(=O)[nH]2)C1c1ccc(F)cc1)c1cc(C(F)(F)F)cc(C(F)(F)F)c1 (single isomer, unassigned) [APREPITANT]"
  unit_of_measure: "%"
  measured_result: 62.5
- molecule: "CC(C)(C#N)c1cc(Cn2cncn2)cc(C(C)(C)C#N)c1"
  unit_of_measure: "%"
  measured_result: 84
- molecule: "O=C(O)[C@H]1/C(=C/CO)O[C@@H]2CC(=O)N21"
  unit_of_measure: "%"
  measured_result: 75
- molecule: "CC[C@H]1OC(=O)[C@H](C)[C@@H](O[C@H]2C[C@@](C)(OC)[C@@H](O)[C@H](C)O2)[C@H](C)[C@@H](O[C@@H]2O[C@H](C)C[C@H](N(C)C)[C@H]2O)[C@](C)(OC)C[C@@H](C)C(=O)[C@H](C)[C@@H](O)[C@]1(C)O"
  unit_of_measure: "%"
  measured_result: 50
- molecule: "Cc1cccc(OC[C@H](O)CNC(C)C)c1 [(R)-TOLIPROLOL]"
  unit_of_measure: "%"
  measured_result: 90
- molecule: "CCCN(CCC)CCc1cccc2c1CC(=O)N2"
  unit_of_measure: "%"
  measured_result: 55

Please find the next molecule below.
Reported bioavailability of `CC(C)NC[C@H](O)c1ccc(NS(C)(=O)=O)cc1` : 60

###

# experiment_notes: Oral bioavailability in human
# run_conditions: in vivo
Returns one of yes or no; yes when bioavailability is >= 70%.

- compound: "Cn1c(=O)c2[nH]cnc2n(C)c1=O.O"
  classification: "yes"
- compound: "CC[C@@H](CO)NC(=O)[C@@H]1C=C2c3cccc4c3c(cn4C)C[C@H]2N(C)C1 [METHYSERGIDE]"
  classification: "no"
- compound: "NC(=O)c1ncn([C@@H]2O[C@H](CO)[C@@H](O)[C@H]2O)n1"
  classification: "no"
- compound: "CC(C)=CCN1CC[C@]2(C)c3cc(O)ccc3C[C@H]1[C@H]2C [(+)-PENTAZOCINE]"
  classification: "no"
- compound: "CN1C(=O)[C@@H](O)N=C(c2ccccc2Cl)c2cc(Cl)ccc21 [(R)-LORMETAZEPAM]"
  classification: "yes"
- compound: "Cc1ncc2n1-c1ccc(Cl)cc1C(c1ccccc1F)=NC2"
  classification: "no"

# bool: bioavailability of `CN/C(=N/CCSCc1nc[nH]c1C)NC#N` >= 70% no

# bool: bioavailability of `O=C(O)[C@H]1N=C(c2ccccc2)c2cc(Cl)ccc2NC1=O` >= 70% yes

# bool: bioavailability of O=P1(N(CCCl)CCCl)NCCCO1 (centres undefined) [CYCLOPHOSPHAMIDE ANHYDROUS] >= 70% yes

###

# experiment_notes: Oral bioavailability in human
# run_conditions: in vivo, F
Item-by-item account of bioavailability
Provide only the numeric value, understood in %.

- molecule_smiles: "CCN(CC)CCC[C@H](C)Nc1ccnc2cc(Cl)ccc12"
  bioavailability, %: 80

Reported bioavailability of `C[C@]12C=CC(=O)C=C1CC[C@@H]1[C@@H]2C(=O)C[C@@]2(C)[C@H]1CC[C@]2(O)C(=O)CO` : 80

Reported bioavailability of `CC(C)Cc1ccc([C@H](C)C(=O)O)cc1` : 80

Origin of values: ChEMBL document CHEMBL1141299
